Below, each entry is listed alongside its reported Dmax at 3 µM.
TGT: MycC (Homo sapiens, UniProt P01106)
Construct: endogenous in cells; host or cells: L363
Sequence (P01106 whole entry): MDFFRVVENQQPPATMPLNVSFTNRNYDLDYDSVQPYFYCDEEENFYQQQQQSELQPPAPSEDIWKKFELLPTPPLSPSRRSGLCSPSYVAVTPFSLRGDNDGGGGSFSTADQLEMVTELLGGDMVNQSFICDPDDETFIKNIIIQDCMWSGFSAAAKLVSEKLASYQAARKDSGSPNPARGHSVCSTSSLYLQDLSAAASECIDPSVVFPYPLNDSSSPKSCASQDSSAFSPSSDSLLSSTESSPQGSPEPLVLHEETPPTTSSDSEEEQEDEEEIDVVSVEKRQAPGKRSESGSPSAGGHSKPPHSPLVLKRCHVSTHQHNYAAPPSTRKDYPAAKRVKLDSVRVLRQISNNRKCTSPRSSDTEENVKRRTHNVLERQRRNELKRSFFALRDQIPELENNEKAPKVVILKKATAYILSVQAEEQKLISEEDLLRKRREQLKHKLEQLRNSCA
METHOD: Degradation of MycC protein in L363 cells, JESS/Western blot of lysates
Format: cell-based
MEASUREMENT_CONTEXT: L-363, 24 h, L-363 cells, 24 h, 3 μM; read-out: % Degradation of MycC (L-363) 24 h, 3 μM

- CNCC12CCC(C1)N(c1nccc(Nc3cc(C4CCCC4)[nH]n3)n1)C2 (centres unmarked): 80 to 100%

Please look up its Dmax at 3 µM: "CN(C)C[C@H]1CCN(c2nccc(Nc3cc(C4CCCC4)[nH]n3)n2)C1" < 20%

State the recorded Dmax at 3 µM for this entry: CNC(C)C1CCCN(c2nccc(Nc3cc(C4CC4)[nH]n3)n2)C1 (single isomer, unassigned) 20 to 49%

Look up Dmax at 3 µM: "CN1CC(C2CN(c3nccc(Nc4cc(C5CCCC5)[nH]n4)n3)C2)C1" < 20%

Quick one: Dmax at 3 µM for "NC[C@@H]1CN(c2nccc(Nc3cc(C4CC4)[nH]n3)n2)C[C@@H]1F" ? 80 to 100%

Request the reported Dmax at 3 µM associated with "CN1CC2(CCN(c3nccc(Nc4cc(C5CC5)[nH]n4)n3)CC2)C1" < 20%

Name the recorded Dmax at 3 µM for "CN1C[C@@H]2CN(c3nccc(Nc4cc(C5CC5)[nH]n4)n3)C[C@@H]2C1" . 20 to 49%

What value of Dmax at 3 µM has been reported for the following molecule? "O=S1(=O)CCN(CC23CC(C2)N(c2nccc(Nc4cc(C5CCCC5)[nH]n4)n2)C3)CC1" 20 to 49%

Could you share which Dmax at 3 µM value was measured for "CN(C)CCCN(C)c1nccc(Nc2cc(C3CC3)[nH]n2)n1" ? < 20%

----------
TGT: MycN (Homo sapiens)
Construct: endogenous in cells; host or cells: SK-N-BE(2)
Sequence (P04198 1-464): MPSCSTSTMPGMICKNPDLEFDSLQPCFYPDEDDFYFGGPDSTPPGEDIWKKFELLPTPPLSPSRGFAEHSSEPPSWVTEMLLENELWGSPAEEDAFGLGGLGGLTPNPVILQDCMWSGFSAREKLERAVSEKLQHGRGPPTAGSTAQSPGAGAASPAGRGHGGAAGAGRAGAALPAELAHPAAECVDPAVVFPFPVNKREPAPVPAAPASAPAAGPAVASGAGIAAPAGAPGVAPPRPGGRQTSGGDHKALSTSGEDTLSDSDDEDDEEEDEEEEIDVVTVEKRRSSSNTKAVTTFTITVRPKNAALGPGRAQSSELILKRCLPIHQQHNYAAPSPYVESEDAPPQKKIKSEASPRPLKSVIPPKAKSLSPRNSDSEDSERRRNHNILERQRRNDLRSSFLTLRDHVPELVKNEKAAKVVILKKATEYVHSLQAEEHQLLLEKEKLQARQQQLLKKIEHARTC
METHOD: Degradation of MycN protein in SK-N-BE(2) cells, JESS/Western blot of lysates
Assay type: cell-based
MEASUREMENT_CONTEXT: SKNBE2, 24 h, SKNBE2 cells, 24 h, 6 μM; read-out: % Degradation of MycN (SKNBE2) 24 h, 6 μM
Protocol: For L363 cells (suspension), 1E6 cells were plated into each well of a 6 well plate. For SK-N-BE(2) cells (adherent), 5E5 cells were plated into each well of a 6 well dish. […] Once an appropriate lysate concentration and antibody concentration was determined, samples were screened in the JESS technology (Protein Simple, San Jose, CA—https://www.proteinsimple.com/jess.html). […]
Listing of entries alongside the reported Dmax at 6 µM.

* CN1C[C@H]2CN(c3nccc(Nc4cc(C5CC5)[nH]n4)n3)C[C@H]21 [Compound 40] | < 20%
* NC[C@H]1CN(c2nccc(Nc3cc(C4CC4)[nH]n3)n2)C[C@H]1F [Compound 122-2] | 80 to 100%
* c1cc(Nc2cc(C3CC3)[nH]n2)nc(N2CC(C3CNC3)C2)n1 [Compound 64] | 20 to 49%
* c1cc(Nc2cc(C3CCCC3)[nH]n2)nc(N2CC3(CN4CCOCC4)CC2C3)n1 [Compound 72] | 80 to 100%
* NC[C@H]1CCN(c2nccc(Nc3cc(C4CC4)[nH]n3)n2)C1 [Compound 11] | 80 to 100%
* c1cc(Nc2cc(C3CCCC3)[nH]n2)nc(N2CC3(CCCNC3)C2)n1 [Compound 106] | 20 to 49%
* COC1CN(CC23CC(C2)N(c2nccc(Nc4cc(C5CCCC5)[nH]n4)n2)C3)C1 [Compound 177] | 50 to 79%
* c1cc(Nc2cc(C3CC3)[nH]n2)nc(N2CCC(C3CNC3)C2)n1 (racemic) [Compound 39] | 20 to 49%
* NCC1CCN(c2nccc(Nc3cc(C4CC4)[nH]n3)n2)CC1 [Compound 10] | 80 to 100%
* c1cc(Nc2cc(C3CC3)[nH]n2)nc(N2CCC3(CNC3)C2)n1 [Compound 2] | 50 to 79%

Which Dmax at 6 µM value belongs to CN(C)[C@@H]1CCN(c2nccc(Nc3cc(C4CC4)[nH]n3)n2)C1 [Compound 17] ? 80 to 100%

Given the compound FC(F)(F)CNCC12CC(C1)N(c1nccc(Nc3cc(C4CCCC4)[nH]n3)n1)C2 [Compound 71] , what is its reported Dmax at 6 µM? 80 to 100%

What value of measured Dmax at 6 µM is listed for CNCC12CC(C1)N(c1nc3c(c(Nc4cc(C5CCCC5)[nH]n4)n1)CCC3)C2 [Compound 183] ? 80 to 100%

Param item = CNC[C@@H]1CN(c2nccc(Nc3cc(C4CCCC4)[nH]n3)n2)CCO1 [Compound 118] ; retrieve measured Dmax at 6 µM. 80 to 100%

Form field: reported Dmax at 6 µM of c1cc(Nc2cc(C3CC3)[nH]n2)nc(N2C[C@H]3CN[C@H]3C2)n1 [Compound 53] < 20%
